Cited source for all entries: ChEMBL document CHEMBL6078723

Tested on: Staphylococcus aureus
Assay: Antibacterial activity against Staphylococcus aureus CGMCC1.8721
Format: functional
measured-property: MIC (µg/mL)
I only need the number, in µg/mL, no unit after it.

Use the examples below as a reference point.
CCCCC[n+]1ccc2c([nH]c3ccc(OC)cc32)c1CC[C@H](C)[C@H]1CC[C@H]2[C@@H]3[C@H](O)C[C@@H]4C[C@H](O)CC[C@]4(C)[C@H]3CC[C@]12C.[Br-]	8
COc1ccc2[nH]c3c(CC[C@H](C)[C@H]4CC[C@H]5[C@@H]6[C@H](O)C[C@@H]7C[C@H](O)CC[C@]7(C)[C@H]6CC[C@]45C)[n+](Cc4ccc(OC(F)(F)F)cc4)ccc3c2c1.[Br-]	16
CCC[n+]1ccc2c([nH]c3ccc(OC)cc32)c1CC[C@H](C)[C@H]1CC[C@H]2[C@@H]3[C@H](O)C[C@@H]4C[C@H](O)CC[C@]4(C)[C@H]3C[C@H](O)[C@]12C.[Br-]	16

Exam item: Requested field: MIC. Item: COc1ccc2[nH]c3c(CC[C@H](C)[C@H]4CC[C@H]5[C@@H]6CC[C@@H]7C[C@H](O)CC[C@]7(C)[C@H]6CC[C@]45C)[n+](Cc4ccc(C(F)(F)F)cc4)ccc3c2c1.[Br-]
Marked response: 16

* * *

Tested on: Staphylococcus aureus
Assay: Antibacterial activity against methicillin-resistant Staphylococcus aureus ATCC 43300
Type: functional
Listing of recorded MIC by entry.
I only need the number, in µg/mL, no unit after it.

CC[n+]1ccc2c([nH]c3ccc(OC)cc32)c1CC[C@H](C)[C@H]1CC[C@H]2[C@@H]3[C@H](O)C[C@@H]4C[C@H](O)CC[C@]4(C)[C@H]3C[C@H](O)[C@]12C.[Br-]	16
COc1ccc2[nH]c3c(CC[C@H](C)[C@H]4CC[C@H]5[C@@H]6CC[C@@H]7C[C@H](O)CC[C@]7(C)[C@H]6CC[C@]45C)[n+](Cc4ccc(OC(F)(F)F)cc4)ccc3c2c1.[Br-]	16
COc1ccc2[nH]c3c(CC[C@H](C)[C@H]4CC[C@H]5[C@@H]6[C@H](O)C[C@@H]7C[C@H](O)CC[C@]7(C)[C@H]6CC[C@]45C)[n+](Cc4ccc(Br)cc4)ccc3c2c1.[Br-]	16

API: the following record is the query input.
Exam item: Which MIC is reported with Staphylococcus aureus for this entry: COc1cccc(C[n+]2ccc3c([nH]c4ccc(OC)cc43)c2CC[C@H](C)[C@H]2CC[C@H]3[C@@H]4[C@H](O)C[C@@H]5C[C@H](O)CC[C@]5(C)[C@H]4CC[C@]23C)c1.[Br-] ?
Marked response: 8

* * *

Listing of recorded MIC by entry.
System: Staphylococcus aureus
Assay: Antibacterial activity against Staphylococcus aureus CGMCC1.8721
Assay type: functional
Please give the number followed by its unit.

Use the examples below as a reference point.
CCCC[n+]1ccc2c([nH]c3ccc(OC)cc32)c1CC[C@H](C)[C@H]1CC[C@H]2[C@@H]3[C@H](O)C[C@@H]4C[C@H](O)CC[C@]4(C)[C@H]3C[C@H](O)[C@]12C.[Br-]	16 µg/mL
CCCC[n+]1ccc2c([nH]c3ccc(OC)cc32)c1CC[C@H](C)[C@H]1CC[C@H]2[C@@H]3[C@H](O)C[C@@H]4C[C@H](O)CC[C@]4(C)[C@H]3CC[C@]12C.[Br-]	1 µg/mL
COc1ccc2[nH]c3c(CC[C@H](C)[C@H]4CC[C@H]5[C@@H]6[C@H](O)C[C@@H]7C[C@H](O)CC[C@]7(C)[C@H]6C[C@H](O)[C@]45C)[n+](Cc4cccc(F)c4)ccc3c2c1.[Br-]	1 µg/mL

Exam item: Requested field: MIC. Item: CC[n+]1ccc2c([nH]c3ccc(OC)cc32)c1CC[C@H](C)[C@H]1CC[C@H]2[C@@H]3CC[C@@H]4C[C@H](O)CC[C@]4(C)[C@H]3CC[C@]12C.[Br-]
Marked response: 16 µg/mL

Exam item: Would you mind doing CC[n+]1ccc2c([nH]c3ccc(OC)cc32)c1CC[C@H](C)[C@H]1CC[C@H]2[C@@H]3[C@H](O)C[C@@H]4C[C@H](O)CC[C@]4(C)[C@H]3CC[C@]12C.[Br-] as well?
Marked response: 1 µg/mL

* * *

Assay: Selectivity index, ratio of HC50 for hemolytic activity in rabbit RBC to MIC for antibacterial activity against Staphylococcus aureus
Assay type: toxicity, cell-based
Conditions: rabbit red blood cells
measured-property: selectivity ratio

Exam item: Requested field: selectivity ratio. Item: COc1ccc2[nH]c3c(CC[C@H](C)[C@H]4CC[C@H]5[C@@H]6[C@H](O)C[C@@H]7C[C@H](O)CC[C@]7(C)[C@H]6C[C@H](O)[C@]45C)[n+](Cc4ccc(Cl)cc4)ccc3c2c1.[Br-]
Marked response: > 256

* * *

Tested on: Staphylococcus aureus
Assay: Antibacterial activity against methicillin-resistant Staphylococcus aureus ATCC 43300
Type: functional
measured-property: MIC (µg/mL)
I only need the number, in µg/mL, no unit after it.

Exam item: Which MIC is reported with Staphylococcus aureus for this entry: CC[n+]1ccc2c([nH]c3ccc(OC)cc32)c1CC[C@H](C)[C@H]1CC[C@H]2[C@@H]3CC[C@@H]4C[C@H](O)CC[C@]4(C)[C@H]3CC[C@]12C.[Br-] ?
Marked response: 16

Exam item: Would you mind doing COc1ccc2[nH]c3c(CC[C@H](C)[C@H]4CC[C@H]5[C@@H]6[C@H](O)C[C@@H]7C[C@H](O)CC[C@]7(C)[C@H]6C[C@H](O)[C@]45C)[n+](Cc4ccc(OC(F)(F)F)cc4)ccc3c2c1.[Br-] as well?
Marked response: 1

Exam item: Would you mind doing COc1ccc2[nH]c3c(CC[C@H](C)[C@H]4CC[C@H]5[C@@H]6[C@H](O)C[C@@H]7C[C@H](O)CC[C@]7(C)[C@H]6CC[C@]45C)[n+](Cc4cccc(F)c4)ccc3c2c1.[Br-] as well?
Marked response: 8

Exam item: Would you mind doing CCC[n+]1ccc2c([nH]c3ccc(OC)cc32)c1CC[C@H](C)[C@H]1CC[C@H]2[C@@H]3[C@H](O)C[C@@H]4C[C@H](O)CC[C@]4(C)[C@H]3C[C@H](O)[C@]12C.[Br-] as well?
Marked response: 16

Exam item: Would you mind doing COc1ccc2[nH]c3c(CC[C@H](C)[C@H]4CC[C@H]5[C@@H]6[C@H](O)C[C@@H]7C[C@H](O)CC[C@]7(C)[C@H]6CC[C@]45C)[n+](Cc4ccc(OC(F)(F)F)cc4)ccc3c2c1.[Br-] as well?
Marked response: 16

Exam item: Would you mind doing COc1ccc2[nH]c3c(CC[C@H](C)[C@H]4CC[C@H]5[C@@H]6CC[C@@H]7C[C@H](O)CC[C@]7(C)[C@H]6CC[C@]45C)[n+](Cc4ccc(C(F)(F)F)cc4)ccc3c2c1.[Br-] as well?
Marked response: 16

Exam item: Would you mind doing COc1ccc2[nH]c3c(CC[C@H](C)[C@H]4CC[C@H]5[C@@H]6[C@H](O)C[C@@H]7C[C@H](O)CC[C@]7(C)[C@H]6C[C@H](O)[C@]45C)[n+](Cc4cccc(F)c4)ccc3c2c1.[Br-] as well?
Marked response: 1

Exam item: Would you mind doing CCCC[n+]1ccc2c([nH]c3ccc(OC)cc32)c1CC[C@H](C)[C@H]1CC[C@H]2[C@@H]3[C@H](O)C[C@@H]4C[C@H](O)CC[C@]4(C)[C@H]3CC[C@]12C.[Br-] as well?
Marked response: 4

* * *

Tested on: Staphylococcus aureus
Assay: Antibacterial activity against Staphylococcus aureus CGMCC1.8721
Assay type: functional
Listing of recorded MIC by entry.
I only need the number, in µg/mL, no unit after it.

COc1ccc2[nH]c3c(CC[C@H](C)[C@H]4CC[C@H]5[C@@H]6[C@H](O)C[C@@H]7C[C@H](O)CC[C@]7(C)[C@H]6CC[C@]45C)[n+](Cc4ccccc4F)ccc3c2c1.[Br-]	4

API: the following record is the query input.
Exam item: Requested field: MIC. Item: COc1ccc2[nH]c3c(CC[C@H](C)[C@H]4CC[C@H]5[C@@H]6[C@H](O)C[C@@H]7C[C@H](O)CC[C@]7(C)[C@H]6C[C@H](O)[C@]45C)[n+](Cc4ccccc4F)ccc3c2c1.[Br-]
Marked response: 1

* * *

Test system: Staphylococcus aureus
Test: Antibacterial activity against methicillin-resistant Staphylococcus aureus ATCC 33591
Type: functional
measured-property: log10 MIC (log10 of the value in µg/mL)
Transform log10 | Measure MIC | Unit µg/mL

Use the examples below as a reference point.
CCCCC[n+]1ccc2c([nH]c3ccc(OC)cc32)c1CC[C@H](C)[C@H]1CC[C@H]2[C@@H]3[C@H](O)C[C@@H]4C[C@H](O)CC[C@]4(C)[C@H]3CC[C@]12C.[Br-]	1.20
COc1ccc2[nH]c3c(CC[C@H](C)[C@H]4CC[C@H]5[C@@H]6CC[C@@H]7C[C@H](O)CC[C@]7(C)[C@H]6CC[C@]45C)[n+](Cc4ccc(C(F)(F)F)cc4)ccc3c2c1.[Br-]	1.51

Exam item: Requested field: log10 MIC. Item: COc1ccc2[nH]c3c(CC[C@H](C)[C@H]4CC[C@H]5[C@@H]6[C@H](O)C[C@@H]7C[C@H](O)CC[C@]7(C)[C@H]6CC[C@]45C)[n+](Cc4ccccc4C)ccc3c2c1.[Br-]
Marked response: 1.20

Exam item: Would you mind doing COc1ccc2[nH]c3c(CC[C@H](C)[C@H]4CC[C@H]5[C@@H]6[C@H](O)C[C@@H]7C[C@H](O)CC[C@]7(C)[C@H]6C[C@H](O)[C@]45C)[n+](Cc4ccc(OC(F)(F)F)cc4)ccc3c2c1.[Br-] as well?
Marked response: 0.30

Exam item: Would you mind doing COc1ccc2[nH]c3c(CC[C@H](C)[C@H]4CC[C@H]5[C@@H]6[C@H](O)C[C@@H]7C[C@H](O)CC[C@]7(C)[C@H]6CC[C@]45C)[n+](Cc4ccc(F)cc4)ccc3c2c1.[Br-] as well?
Marked response: 0.90

Exam item: Would you mind doing COc1ccc2[nH]c3c(CC[C@H](C)[C@H]4CC[C@H]5[C@@H]6[C@H](O)C[C@@H]7C[C@H](O)CC[C@]7(C)[C@H]6C[C@H](O)[C@]45C)[n+](Cc4ccc(Cl)cc4)ccc3c2c1.[Br-] as well?
Marked response: 0.00

Exam item: Would you mind doing COc1cccc(C[n+]2ccc3c([nH]c4ccc(OC)cc43)c2CC[C@H](C)[C@H]2CC[C@H]3[C@@H]4[C@H](O)C[C@@H]5C[C@H](O)CC[C@]5(C)[C@H]4C[C@H](O)[C@]23C)c1.[Br-] as well?
Marked response: 0.60

Exam item: Would you mind doing COc1ccc2[nH]c3c(CC[C@H](C)[C@H]4CC[C@H]5[C@@H]6[C@H](O)C[C@@H]7C[C@H](O)CC[C@]7(C)[C@H]6C[C@H](O)[C@]45C)[n+](Cc4ccc(C)cc4)ccc3c2c1.[Br-] as well?
Marked response: 0.60

Exam item: Would you mind doing CCCC[n+]1ccc2c([nH]c3ccc(OC)cc32)c1CC[C@H](C)[C@H]1CC[C@H]2[C@@H]3[C@H](O)C[C@@H]4C[C@H](O)CC[C@]4(C)[C@H]3CC[C@]12C.[Br-] as well?
Marked response: 0.60
